Hey, just so you know, these numbers are from paper PMC11522000.

experimentalProtocol: 2 weeks GLP rat toxicology study with toxicokinetics
Format: in vivo
conditionsUsed: both, Wistar, plasma, po, 1000 mg/kg/day, Tmax, EDI048 1000 mg/kg/day, day 1
assayEndpoint: Tmax (h)

>>> print(df.to_string())
                                 smilesdata  assayendpoint  readoutunits  result
0  CNC(=O)c1ccc(-c2cnn3ccc(C(=O)N(C)c4ccc(Cl)c(C(=O)OC)c4)cc23)cc1           Tmax             h     0.5
1  CNC(=O)c1ccc(-c2cnn3ccc(C(=O)N(C)c4ccc(Cl)c(C(=O)O)c4)cc23)cc1           Tmax             h       1
2  COC(=O)c1cc(N(C)C(=O)c2ccn3ncc(-c4ccc(C(=O)O)cc4)c3c2)ccc1Cl           Tmax             h       3
